Below: a set of entries, each annotated with reported Plant response rating, Barnyardgrass.
- Test system: barnyardgrass
- Procedure Summary: Test B preemergence/postemergence greenhouse plant response rating 0 to 10
- Type: in vivo, Echinochloa crus-galli
- Stated Conditions: POSTEMERGENCE, Rate 200 g/ha; 0 to 10 scale
Output: the number by itself.

Data request: Which Plant response rating, Barnyardgrass is reported for this compound? `Fc1cc(Cl)ccc1-c1nn2c(c1Br)CCCC2`
Data returned: 9

Data request: Request: `CCC(=O)Oc1cc(-c2nn3c(c2Cl)CCCC3)c(F)cc1Cl`
Data returned: 9

Data request: Repeat with `Clc1ccc(-c2nn3c(c2Cl)CCCC3)c(Cl)c1`
Data returned: 9

Data request: Record: `CC(=O)c1cc(-c2nn3c(c2Cl)CCCC3)c(F)cc1Cl`
Data returned: 5

Data request: Please give the result for `CC(C)Oc1cc(-c2nn3c(c2Cl)CCCC3)c(F)cc1Cl` too.
Data returned: 9

Data request: Please do the same for `Fc1cc(Cl)c(OCc2ccccc2)cc1-c1nn2c(c1Cl)CCCC2` as well.
Data returned: 5

* * *

- Test system: cocklebur
- Procedure Summary: Test B preemergence/postemergence greenhouse plant response rating 0 to 10
- Type: in vivo, Xanthium pensylvanicum
- Stated Conditions: Rate 200 g/ha, PREEMERGENCE; 0 to 10 scale
- From the text: Seeds of barley (Hordeum vulgare), barnyardgrass (Echinochloa crus-galli), bedstraw (Galium aparine), blackgrass (Alopecurus myosuroides), […] […] Treated plants and controls were maintained in a greenhouse for twelve to sixteen days, after which all species were compared to controls and visually evaluated. […]
Value Kind: Plant response rating, Cocklebur

Known Plant response rating, Cocklebur results, listed for orientation:
> print(dat)
                               smiles.data                        value.kind  value
1  CC(C)Oc1cc(-c2nn3c(c2Br)CCCC3)c(F)cc1Cl  Plant response rating, Cocklebur      5
2  CC(=O)c1cc(-c2nn3c(c2Cl)CCCC3)c(F)cc1Cl  Plant response rating, Cocklebur      4

Shifting focus to the molecule that follows.
Data request: # lookup: Plant response rating, Cocklebur of `Fc1cc(Cl)c(OCc2ccccc2)cc1-c1nn2c(c1Cl)CCCC2`
Data returned: 1

* * *

- Tested on: wild oat
- Procedure Summary: Test B preemergence/postemergence greenhouse plant response rating 0 to 10
- Format: in vivo, Avena fatua
- Stated Conditions: POSTEMERGENCE, Rate 50 g/ha; 0 to 10 scale
Each item that follows carries a reported Plant response rating, Wild oat.
Give only the figure.

Data request: Look up Plant response rating, Wild oat for this compound: `C#CCN1C(=O)COc2cc(F)c(-c3nn4c(c3Cl)CCCC4)cc21`
Data returned: 5

Data request: Now the same for `CC(C)(C)C(=O)COc1cc(-c2nn3c(c2Cl)CCCC3)c(Cl)cc1Cl`
Data returned: 1

Data request: What would you report for `Oc1cc(-c2nn3c(c2Br)CCCC3)c(F)cc1Cl` ?
Data returned: 2

Data request: Cool, now `CCCCN1C(=O)COc2cc(F)c(-c3nn4c(c3Cl)CCCC4)cc21`
Data returned: 7

Data request: Same for `CC(C)N1C(=O)COc2cc(F)c(-c3nn4c(c3Cl)CCCC4)cc21`
Data returned: 6

Data request: Again, but for COC(=O)C(C)Oc1cc(-c2nn3c(c2Cl)CCCC3)c(F)cc1Cl (stereo not drawn)
Data returned: 5

Data request: Entry to check: `C#CCN1C(=O)COc2cc(F)c(-c3nn4c(c3Br)CCCC4)cc21`
Data returned: 6

Data request: Also C#CC(C)Oc1cc(-c2nn3c(c2Cl)CCCC3)c(Cl)cc1Cl (stereo not drawn) , if possible.
Data returned: 4

Data request: For `Fc1cc(Cl)c(OCCCl)cc1-c1nn2c(c1Cl)CCCC2` then?
Data returned: 3
